System under test: UniProt P10827
Procedure text: LanthaScreen TR-FRET Thyroid Receptor alpha Coactivator Assay (agonist screening)
Measurement conditions: TR alpha-LBD 0.4 nM, 2 hour incubation, average of duplicate runs, read-out: EC50 THRα-FRET
Experimental: Example B1: Time-Resolved Fluorescence Resonance Energy Transfer (TR-FRET) Assay for Thyroid Hormone Receptor Agonist Screening LanthaScreen™ TR-FRET Thyroid Receptor alpha Coactivator Assay kit (ThermoFisher) and LanthaScreen™ TR-FRET Thyroid Receptor beta Coactivator Assay kit (ThermoFisher) were used for agonist compound screening. Compounds in DMSO were diluted using ECHO Liquid Handler (Labcyte Inc.) into 384 plates in 10-point 3-fold series in duplicate (5 micro M final top concentration). […]
pEC50: −log10 of the molar value.
Readout: pEC50

// worked examples, pEC50 included
>>> obs_value("CC(C)c1cc(Cc2c(Cl)cc(NCc3noc(=O)[nH]3)cc2Cl)nn(C)c1=O")
7.08
>>> obs_value("CC(C)c1cc(Oc2c(Cl)cc(NCc3noc(=O)[nH]3)c(F)c2Cl)nn(C)c1=O")
6.84
>>> obs_value("CC(C)c1cc(Oc2c(Cl)cc(NC(=O)c3noc(=O)[nH]3)c3c2CCC3)nn(C)c1=O")
5.69
>>> obs_value("Cc1c(NC(=O)c2noc(=O)[nH]2)cc(Cl)c(Oc2cc(C(C)C)c(=O)n(C)n2)c1Cl")
6.72
>>> obs_value("CCC(O)c1cc(Oc2c(Cl)cc(NC(=O)c3noc(=O)[nH]3)cc2Cl)n[nH]c1=O (stereo not shown)")
5.81

A. CC(C)c1cc(Cc2c(Cl)cc(NCc3noc(=O)[nH]3)cc2Cl)n[nH]c1=O
B. CC(C)c1cc(Oc2c(Cl)cc(NC(=O)c3noc(=O)[nH]3)cc2Cl)n[nH]c1=O
Prompt: Please state the entry with greater pEC50 among A and B . Returns: label corresponding to the selected item.
Response: A
(A: 6.99, B: 5.88)

A. CC[C@@H](O)c1cc(Oc2c(Cl)cc(NC(=O)c3noc(=O)[nH]3)cc2Cl)n[nH]c1=O
B. Cn1nc(Cc2c(Cl)cc(NC(=O)c3noc(=O)[nH]3)cc2Cl)cc(C2CC2)c1=O
Prompt: Please state the entry with greater pEC50 among A and B . Returns: label corresponding to the selected item.
Response: B
(B: 6.05, A: 5.37)

---

System under test: TR alpha-LBD (thyroid hormone receptor alpha) (Homo sapiens (Human), UniProt P10827)
Sequence (P10827 other isoform, or with tags, fused parts or gaps del 1-162, other chains not shown): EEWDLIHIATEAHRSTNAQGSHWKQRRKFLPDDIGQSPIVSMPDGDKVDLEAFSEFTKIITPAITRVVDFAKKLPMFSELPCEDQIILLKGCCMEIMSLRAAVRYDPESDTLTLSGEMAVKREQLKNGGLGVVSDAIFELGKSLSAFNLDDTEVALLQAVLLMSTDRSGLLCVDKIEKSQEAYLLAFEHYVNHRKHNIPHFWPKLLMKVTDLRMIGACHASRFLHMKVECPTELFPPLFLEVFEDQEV
Procedure text: LanthaScreen TR-FRET Thyroid Receptor alpha Coactivator Assay (agonist screening)
Measurement conditions: TR alpha-LBD 0.4 nM, 2 hour incubation, average of duplicate runs, read-out: EC50 THRα-FRET
pEC50: −log10 of the molar value.
Readout: pEC50

// worked examples, pEC50 included
>>> obs_value("CC[C@H](O)c1cc(Oc2c(Cl)cc(NC(=O)c3noc(=O)[nH]3)cc2Cl)n[nH]c1=O")
5.94
>>> obs_value("CC(C)c1cc(Oc2c(Cl)cc(NCc3noc(=O)[nH]3)cc2Cl)nn(C)c1=O")
7.31
>>> obs_value("CC(C)c1cc(S(=O)(=O)c2c(Cl)cc(NCc3noc(=O)[nH]3)cc2Cl)nn(C)c1=O")
5.72
>>> obs_value("CC(C)(C)c1cc(Oc2c(Cl)cc(NC(=O)c3noc(=O)[nH]3)cc2Cl)n[nH]c1=O")
5.37

A. CC(C)c1cc(Oc2c(Cl)cc(-c3cc(=O)[nH]o3)cc2Cl)n[nH]c1=O
B. CC(C)c1cc(Oc2c(Cl)cc(NC(C)c3noc(=O)[nH]3)cc2Cl)nn(C)c1=O (single isomer, unassigned) [Example 3-P1]
C. Cn1nc(Oc2c(Cl)cc(NC(=O)c3noc(=O)[nH]3)cc2Cl)cc(C(C)(C)O)c1=O
D. CC(C)c1cc(Oc2c(Cl)cc(-c3noc(=O)[nH]3)cc2Cl)n[nH]c1=O
Prompt: Arrange the 4 molecules by rising pEC50, starting with the smallest. Dear reader, please state the labels in the requested order.
Response: A, C, D, B
(A: 5.64, C: 6.67, D: 6.90, B: 7.12)

1. C[C@H](O)c1cc(Oc2c(Cl)cc(NC(=O)c3noc(=O)[nH]3)cc2Cl)n[nH]c1=O
2. CC(C)c1cc(Oc2c(Cl)cc(NC(C)c3noc(=O)[nH]3)cc2Cl)nn(C)c1=O (single isomer, unassigned) [Example 3-P2]
3. CC(C)c1cc(Oc2c(Cl)cc(NCc3noc(=O)[nH]3)cc2Cl)n[nH]c1=O
4. CC(C)c1cc(Oc2c(Cl)cc(OCc3noc(=O)[nH]3)cc2Cl)nn(C)c1=O
Prompt: Hey, quick one: sort these by pEC50, largest value first please. Dear reader, please state the labels in the requested order.
Response: 4, 3, 2, 1

I. CC(CO)c1cc(Oc2c(Cl)cc(NC(=O)c3noc(=O)[nH]3)cc2Cl)nn(C)c1=O (stereo not shown)
II. CC(C)c1cc(Oc2c(Cl)cc(-c3cc(=O)[nH]o3)cc2Cl)nn(C)c1=O
Prompt: Please state the entry with greater pEC50 among I and II . Returns: label corresponding to the selected item.
Response: II
(II: 6.33, I: 5.58)
